Reference source: PubChem BioAssay AID1159580

Assay: chemical genetic growth profiling, strain panel (AID 1159580);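 note: tested at 20 µM; growth read once vehicle control cultures reached saturation at 30 °C; 1 = growth at the plate median or of vehicle wells; lower values mean less growth of the strain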
Settings: S. cerevisiae deletion strains, growth OD, locus YPL078C, strain atp4, active compounds read low
About 2,000 (36%) of roughly 5,500 compounds were called active. About 18% were inconclusive and are not listed. Some of the results follow.
assay_endpoint: normalized growth
Simply state the number, no unit and no words.

>  <compound>
O=S(=O)(O)c1cc(N=C=S)ccc1/C=C/c1ccc(N=C=S)cc1S(=O)(=O)O

>  <normalized growth>
1.02

$$$$
>  <compound>
O=C(O)/C=C/c1ccc(O)c(O)c1

>  <normalized growth>
1

$$$$
>  <compound>
COC(=O)c1cc(=O)c(O)c2c(O)c(O)ccc2c1

>  <normalized growth>
1.02

$$$$

Challenge: Can you look up the measured normalized growth of COc1ccc(OC)c(C(O)CNC(=O)CN)c1 (configuration not stated) for me?
Response given: 1.01

Challenge: Can you look up the measured normalized growth of C[C@]12CCC(=O)C=C1C=CC1C2CC[C@@]2(C)C1CC[C@@]21CCC(=O)O1 (some centres not stated) for me?
Response given: 0.975

Challenge: Can you look up the measured normalized growth of NCCc1cnc[nH]1 for me?
Response given: 1.02

Challenge: Can you look up the measured normalized growth of O=C1CCC(N2C(=O)c3ccccc3C2=O)C(=O)N1 (configuration not stated) for me?
Response given: 1.01
